Hello, the source for this data is paper PMC8189969, in case you need it.

# Measured Target: T1, hen egg white lysozyme (Gallus gallus (hen egg white), UniProt P00698)
# T1 construct: hen egg white lysozyme (HEWL), 14.5 kDa, monomeric; The source is named for ITC (Roche powder); also called HEWL; source: bought: Roche (HEWL lysozyme powder, > 95%)
# T1 sequence (P00698 19-147): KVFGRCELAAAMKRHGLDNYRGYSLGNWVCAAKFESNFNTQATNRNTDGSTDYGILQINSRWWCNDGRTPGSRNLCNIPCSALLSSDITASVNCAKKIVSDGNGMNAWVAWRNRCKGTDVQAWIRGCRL
# Measurement Description: ITC; Malvern PEAQ-ITC; 20 °C; PBS pH 7.4 with 0.005% tween 20; lysozyme in the cell and nanobody titrated (so in the source); nanobody 20 or 30 µM, lysozyme 200 or 300 µM; single site model
# Condition Set: both partners purified
Attribute Measured: dH (kcal/mol)
Note: unit kcal/mol is implicit; provide only the numeric part.

Answered examples (3):
{"Binder": "H04 nanobody (VHH, crystal structure with lysozyme PDB 4U3X (Rouet et al. 2015); CDR3 of 12 residues; Developed in Daniel Christ's group (Rouet et al. 2015); source: E. coli T7-Express, purified (IMAC, Superdex-75)) VHH: EVQLLESGGGLVQPGGSLRLSCAASGFRFDAEDMGWVRQAPGKGLEWVSSIYGPSGSTYYADSVKGRFTISRDNSKNTLYLQMNSLRAEDTAVYYCAKYTSPPQNHGFDYWGQGTLVTVSS", "Test Result": -17.6}
{"Binder": "Cab-Lys3 nanobody (VHH, crystal structure PDB 1XFP named for it (Muyldermans and Lauwereys 1999); CDR3 of 24 residues with an extra disulphide between CDR1 and CDR3; also called WT Cab-Lys3; source: E. coli T7-Express, purified (IMAC, Superdex-75)) VHH: DVQLQASGGGSVQAGGSLRLSCAASGYTIGPYCMGWFRQAPGKEREGVAAINMGGGITYYADSVKGRFTISQDNAKNTVYLLMNSLEPEDTAIYYCAADSTIYASYYECGHGLSTGGYGYDSWGQGTQVTVSS", "Test Result": 1.6}
{"Binder": "Cab-Lys3 T101S nanobody (VHH, as the chain of m6 (Cab-Lys3) with T101S in CDR3; source: E. coli T7-Express, purified (IMAC, Superdex-75)) VHH: DVQLQASGGGSVQAGGSLRLSCAASGYTIGPYCMGWFRQAPGKEREGVAAINMGGGITYYADSVKGRFTISQDNAKNTVYLLMNSLEPEDTAIYYCAADSSIYASYYECGHGLSTGGYGYDSWGQGTQVTVSS", "Test Result": 3}

# input Requested field: dH. Item: Phage-B09 nanobody (VHH, selected by phage display from the NaLi-H1 synthetic library (Hybrigenics); also called P-B09; source: E. coli T7-Express, purified (IMAC, Superdex-75)) VHH: EVQLQASGGGFVQPGGSLRLSCAASGSTYRRSTMGWFRQAPGKEREFVSAISSDHSHPDYYADSVKGRFTISRDNSKNTVYLQMNSLRAEDTATYYCAFQYDSDKKSYWGQGTQVTVSS
# output -14.5

# input # repeat for H04 H106A nanobody (VHH, as the chain of m2 (H04) with H106A in CDR3; source: E. coli T7-Express, purified (IMAC, Superdex-75)) VHH: EVQLLESGGGLVQPGGSLRLSCAASGFRFDAEDMGWVRQAPGKGLEWVSSIYGPSGSTYYADSVKGRFTISRDNSKNTLYLQMNSLRAEDTAVYYCAKYTSPPQNAGFDYWGQGTLVTVSS
# output -17
